- measurementContext: in 1,4-dioxane, 308.15 K
experimentalEndpoint: solubility (mole fraction)
One number for each entry.

Asked: Can you share its solubility (mole fraction)? I mean this molecule: `CC(C)C(=O)Nc1ccc([N+](=O)[O-])c(C(F)(F)F)c1`
Given back: 0.239

* * *

- measurementContext: in acetonitrile, 298.15 K
experimentalEndpoint: solubility (mole fraction)
Answers are plain numbers.

Asked: Can you share its solubility (mole fraction)? I mean this compound: `CC(C)C(=O)Nc1ccc([N+](=O)[O-])c(C(F)(F)F)c1`
Given back: 0.144

* * *

- measurementContext: in ethanol, 298.15 K
experimentalEndpoint: solubility (mole fraction)
Numbers only.

Asked: Can you share its solubility (mole fraction)? I mean this molecule: `CC(C)C(=O)Nc1ccc([N+](=O)[O-])c(C(F)(F)F)c1`
Given back: 0.0728

* * *

- measurementContext: in isopropanol, 318.15 K
experimentalEndpoint: solubility (mole fraction)
Numbers only.

Asked: Can you share its solubility (mole fraction)? I mean this compound: `CC(C)C(=O)Nc1ccc([N+](=O)[O-])c(C(F)(F)F)c1`
Given back: 0.155

* * *

- measurementContext: in 1,4-dioxane, 303.15 K
experimentalEndpoint: solubility (mole fraction)
One number for each entry.

Asked: Can you share its solubility (mole fraction)? I mean this molecule: `CC(C)C(=O)Nc1ccc([N+](=O)[O-])c(C(F)(F)F)c1`
Given back: 0.21

* * *

- measurementContext: in ethanol, 308.15 K
experimentalEndpoint: solubility (mole fraction)
Numbers only.

Asked: Can you share its solubility (mole fraction)? I mean this compound: `CC(C)C(=O)Nc1ccc([N+](=O)[O-])c(C(F)(F)F)c1`
Given back: 0.1

* * *

- measurementContext: in 1,4-dioxane, 313.15 K
experimentalEndpoint: solubility (mole fraction)
Numbers only.

Asked: Can you share its solubility (mole fraction)? I mean this compound: `CC(C)C(=O)Nc1ccc([N+](=O)[O-])c(C(F)(F)F)c1`
Given back: 0.272

* * *

- measurementContext: in isopropanol, 323.15 K
experimentalEndpoint: solubility (mole fraction)

Asked: Can you share its solubility (mole fraction)? I mean this molecule: `CC(C)C(=O)Nc1ccc([N+](=O)[O-])c(C(F)(F)F)c1`
Given back: 0.176

* * *

- measurementContext: in 1,4-dioxane, 318.15 K
experimentalEndpoint: solubility (mole fraction)
One number for each entry.

Asked: Can you share its solubility (mole fraction)? I mean this compound: `CC(C)C(=O)Nc1ccc([N+](=O)[O-])c(C(F)(F)F)c1`
Given back: 0.307

* * *

- measurementContext: in water, 293.15 K
experimentalEndpoint: solubility (mole fraction)
Numbers only.

Asked: Can you share its solubility (mole fraction)? I mean this compound: `CC(C)C(=O)Nc1ccc([N+](=O)[O-])c(C(F)(F)F)c1`
Given back: 5.23e-07

* * *

- measurementContext: in water, 278.15 K
experimentalEndpoint: solubility (mole fraction)

Asked: Can you share its solubility (mole fraction)? I mean this molecule: `CC(C)C(=O)Nc1ccc([N+](=O)[O-])c(C(F)(F)F)c1`
Given back: 2.41e-07

* * *

- measurementContext: in isopropanol, 288.15 K
experimentalEndpoint: solubility (mole fraction)
One number for each entry.

Asked: Can you share its solubility (mole fraction)? I mean this compound: `CC(C)C(=O)Nc1ccc([N+](=O)[O-])c(C(F)(F)F)c1`
Given back: 0.0756

* * *

- measurementContext: in acetonitrile, 303.15 K
experimentalEndpoint: solubility (mole fraction)
Answers are plain numbers.

Asked: Can you share its solubility (mole fraction)? I mean this compound: `CC(C)C(=O)Nc1ccc([N+](=O)[O-])c(C(F)(F)F)c1`
Given back: 0.177

Data origin: BigSolDB 2.1
